System: CCRF-CEM leukemia
Experiment notes: NCI-60 one-dose screen, 48 h (100 = growth as untreated, 0 = no growth, -100 = all killed)
Condition set: 10 µM unless noted
Compounds without any hit were thinned out: in the full panel of roughly 83,000, 20% have a hit.
So basically, if growth comes in under 80% it's 1, and if it's 80% or more it's 0.

>  <Compound>
CCOc1ccccc1C(=O)OCC(=O)Nc1cccc(S(=O)(=O)N(C)C)c1

>  <Target or system>
CCRF-CEM leukemia

>  <Class>
0

$$$$
>  <Compound>
CCCCC1Nc2nc(SC)n(C)c(=O)c2CN(Cc2ccccc2)C1=O (configuration not stated)

>  <Target or system>
CCRF-CEM leukemia

>  <Class>
0

$$$$
>  <Compound>
S=c1[nH]nc2sc3ccccc3n12

>  <Target or system>
CCRF-CEM leukemia

>  <Class>
0

$$$$
>  <Compound>
O=C1CC(C(F)(F)F)=NN1C(=O)c1nn(-c2ccc(Cl)cc2)cc1O

>  <Target or system>
CCRF-CEM leukemia

>  <Class>
1

$$$$
>  <Compound>
O=C1C(=O)c2ccc(Br)cc2-c2cc(Br)ccc21

>  <Target or system>
CCRF-CEM leukemia

>  <Class>
1

$$$$
>  <Compound>
COc1cc(C(=O)/C=C/c2cccnc2Nc2ccccc2)cc(OC)c1OC

>  <Target or system>
CCRF-CEM leukemia

>  <Class>
1

$$$$
>  <Compound>
CC[N+](C)(CC)CCCC(C)Nc1ccnc2cc(Cl)ccc12 (configuration not stated)

>  <Target or system>
CCRF-CEM leukemia

>  <Class>
0

$$$$
>  <Compound>
CCC(O)C(C)(C)C (configuration not stated)

>  <Target or system>
CCRF-CEM leukemia

>  <Class>
0

$$$$

Inquiry: Hello, I'm reviewing records and need to know if growth of COc1cc(OC)c2cc(C(=O)O)c(=O)oc2c1 is below 80%. Could you check?
Reply text: 0

Inquiry: Hello, I'm reviewing records and need to know if growth of CCCCCCCC1(C)NC(=O)NC1=O (configuration not stated) is below 80%. Could you check?
Reply text: 0

Inquiry: Hello, I'm reviewing records and need to know if growth of NNC(=O)C1CC2c3ccccc3C1c1ccccc12 (configuration not stated) is below 80%. Could you check?
Reply text: 0
